- test-method-notes: viability gain of MRP-1-high H69AR cells under doxorubicin, pilot screen, MRP-1 activator project, CellTiter-Glo, duplicate (AID 807);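 note: compound pretreatment 18-22 h then 72 h combined with doxorubicin; 0% = doxorubicin alone and 100% = vehicle without doxorubicin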
- measurement-setup: H69AR viability with doxorubicin, CellTiter-Glo luminescence; at 10 µM; active compounds read high
measurement-kind: viability increase (%)

[[record]]
compound = "Cc1nc2sc(C(c3ccc(C(C)C)cc3)N3CCN(CCO)CC3)c(O)n2n1 (stereo not given)"
units_symbol = "%"
test_result = -0.75

[[record]]
compound = "Cn1c(C(=O)NCCN2CCc3ccccc3C2)cc2c(=O)n(C)c3ccccc3c21"
units_symbol = "%"
test_result = -4.36

[[record]]
compound = "CCCc1n[nH]c2c1C(=O)CC(C)(C)C2"
units_symbol = "%"
test_result = -1.76

[[record]]
compound = "O=C(Nc1ccc(N2CCN(C(=O)c3ccccc3)CC2)c(Cl)c1)c1ccco1"
units_symbol = "%"
test_result = -3.69

[[record]]
compound = "COc1ccc(OC)c(NC(=O)COC(=O)c2ccc(S(=O)(=O)N3CCOCC3)cc2)c1"
units_symbol = "%"
test_result = -1.17


----------
The entries below come with measured viability values attached.
- test-method-notes: growth suppression of PTEN-deleted HCT116, pilot screen, cell-based, HCT116 clonal line, CellTiter-Glo (AID 824);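 note: 0% = 20 µM Hyamine control and 100% = vehicle cell control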
- measurement-setup: 60 h, at 10 µM, active compounds read low
Results filed as inconclusive are left out.
measurement-kind: viability (%)

[[record]]
compound = "COc1ccc(-n2c(Cc3cc(=O)[nH]c(=O)[nH]3)nnc2SCC(=O)Nc2ccccc2)cc1"
units_symbol = "%"
test_result = 98.7

[[record]]
compound = "CCNC(=O)Cc1ccc(NS(=O)(=O)c2ccc(F)cc2)cc1"
units_symbol = "%"
test_result = 94.6

[[record]]
compound = "Clc1ccc(CCNc2ncnc3nc[nH]c23)cc1"
units_symbol = "%"
test_result = 77

[[record]]
compound = "NC(=O)C1(N2CCCCC2)CCN(C(=O)c2cccs2)CC1"
units_symbol = "%"
test_result = 92.3

[[record]]
compound = "Nc1cc(C(F)(F)F)ccc1C(=O)O"
units_symbol = "%"
test_result = 95.3

[[record]]
compound = "CCOc1ccccc1C1C(C(=O)Nc2ccccc2OC)=C(C)Nc2nc(CCCO)nn21 (stereo unspecified)"
units_symbol = "%"
test_result = 88

[[record]]
compound = "CCCNC(=O)Nc1cc(OCC)c(N2CCOCC2)cc1OCC"
units_symbol = "%"
test_result = 105

[[record]]
compound = "Cc1ccc2cc(CCNS(=O)(=O)c3ccc(F)cc3)c(=O)[nH]c2c1"
units_symbol = "%"
test_result = 80.5

[[record]]
compound = "CC1CN(CCC(=O)Nc2ccc3c(c2)CCC3)CC(C)O1 (stereo unspecified)"
units_symbol = "%"
test_result = 93

[[record]]
compound = "c1ccc(Cn2c(CSc3nnnn3-c3ccccc3)nc3ccccc32)cc1"
units_symbol = "%"
test_result = 95

[[record]]
compound = "CNc1nc(SCC(=O)OC)nc(N2CCOCC2)n1"
units_symbol = "%"
test_result = 89.3


----------
- test-method-notes: RAM signaling pathway blockade in yeast – S. cerevisiae, Pdr1DBD-CYC8 efflux-inhibited sensitized strain, primary screen (AID 1298);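 note: 0% = DMSO untreated cells without growth and 100% = 10 µM 1-NA-PP1 full growth; higher means more yeast growth rescued from 5-FOA killing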
- measurement-setup: S. cerevisiae cbk1-as DSE1-URA3 strain, 5-FOA growth OD615, 2 d; at 50 µM; active compounds read high
measurement-kind: RAM network inhibition (%)

[[record]]
molecule = "Clc1ccc(CSc2nnc(-c3ccccn3)n2Cc2ccco2)c(Cl)c1"
units_symbol = "%"
test_result = 7.51

[[record]]
molecule = "COc1ccccc1NC(=O)N1CCN(c2ccccn2)CC1"
units_symbol = "%"
test_result = 4.32

[[record]]
molecule = "O=C(CCS(=O)CCC(=O)NCc1ccccc1)NCc1ccccc1"
units_symbol = "%"
test_result = 4.15

[[record]]
molecule = "COc1ccc(C(=O)NCC(c2cccnc2)N2CCN(c3ccccc3OC)CC2)cc1OC (stereo not drawn)"
units_symbol = "%"
test_result = 2.21

[[record]]
molecule = "Cc1nc2cc(-c3cccc(F)c3)nn2c(C)c1CCC(=O)N1CCN(c2ccccn2)CC1"
units_symbol = "%"
test_result = 4.65

[[record]]
molecule = "Cc1cc2c(cc(C(=O)N3CCC(C(=O)NC4CCCC4)CC3)n2Cc2c(F)cccc2Cl)o1"
units_symbol = "%"
test_result = 3.45

[[record]]
molecule = "O=C(O)C1C2C=CC(C2)C1C(=O)NCc1ccc2c(c1)OCO2 (stereo not drawn)"
units_symbol = "%"
test_result = 2.65

[[record]]
molecule = "COc1ccc(C2NC(=O)c3n[nH]c(C)c32)c(OC)c1 (stereo not drawn)"
units_symbol = "%"
test_result = 3.42

[[record]]
molecule = "COc1ccc(O)c(-c2[nH]ncc2C(=O)c2ccccc2C)c1"
units_symbol = "%"
test_result = -0.67

[[record]]
molecule = "O=C1C(Cl)=C(N2CCOCC2)C(=O)N1c1ccccc1Cl"
units_symbol = "%"
test_result = 4.96

[[record]]
molecule = "c1csc(Cc2nc(-c3ccc(-n4cccc4)cc3)no2)c1"
units_symbol = "%"
test_result = 1.65

[[record]]
molecule = "Cc1c(C(=O)NCc2ccc3c(c2)OCO3)oc2ccc(S(=O)(=O)N3CCCCCC3)cc12"
units_symbol = "%"
test_result = 10.9

[[record]]
molecule = "COc1ccc(NC(=O)Cc2nc3ccccc3[nH]2)cc1"
units_symbol = "%"
test_result = -1.49

[[record]]
molecule = "N#CC1=C(c2ccccc2)N=P(N2CCOCC2)(N2CCOCC2)N=C1N1CCOCC1"
units_symbol = "%"
test_result = 0.33

[[record]]
molecule = "Cc1cccc(NS(=O)(=O)c2ccccc2)n1"
units_symbol = "%"
test_result = 0.26

[[record]]
molecule = "O=C(NCCCN1CCC(Cc2ccccc2)CC1)C1CCC(=O)N1C1CCCC1 (stereo not drawn)"
units_symbol = "%"
test_result = 1.85

[[record]]
molecule = "O=C(NCCc1ccc(Cl)cc1)C1CC(=O)N(C2CCCCC2)C1 (stereo not drawn)"
units_symbol = "%"
test_result = 0.58

[[record]]
molecule = "CCn1cc(SCC(=O)NCc2ccc3c(c2)OCO3)c2ccccc21"
units_symbol = "%"
test_result = 3.73

[[record]]
molecule = "CSc1nnc(Cn2c(=O)sc3ccccc32)n1C"
units_symbol = "%"
test_result = 6.98

[[record]]
molecule = "CCNc1nc(NCC)nc(-n2nc(C)cc2C)n1"
units_symbol = "%"
test_result = 0.75

[[record]]
molecule = "Cc1ccc(C)c(N2CCN(C(=O)C3CCCN(S(=O)(=O)c4cnc[nH]4)C3)CC2)c1 (stereo not drawn)"
units_symbol = "%"
test_result = -0.52

[[record]]
molecule = "CCOC(=O)N1CCC(NC(=O)c2cnc3n(c2=O)CCS3)CC1"
units_symbol = "%"
test_result = 1.68

[[record]]
molecule = "COc1ccc(S(=O)(=O)NCC2CCC(C(=O)N3CCC4(CC3)OCCO4)CC2)cc1 (stereo not drawn)"
units_symbol = "%"
test_result = 2.29


# credit: PubChem BioAssay
